Values compiled from patent EP4741383A1.

Target: CYP2C8 (Homo sapiens, UniProt P10632)
Construct: tissue Corning or Xenotech; host or cells: human liver microsomes
Sequence (P10632 1-490): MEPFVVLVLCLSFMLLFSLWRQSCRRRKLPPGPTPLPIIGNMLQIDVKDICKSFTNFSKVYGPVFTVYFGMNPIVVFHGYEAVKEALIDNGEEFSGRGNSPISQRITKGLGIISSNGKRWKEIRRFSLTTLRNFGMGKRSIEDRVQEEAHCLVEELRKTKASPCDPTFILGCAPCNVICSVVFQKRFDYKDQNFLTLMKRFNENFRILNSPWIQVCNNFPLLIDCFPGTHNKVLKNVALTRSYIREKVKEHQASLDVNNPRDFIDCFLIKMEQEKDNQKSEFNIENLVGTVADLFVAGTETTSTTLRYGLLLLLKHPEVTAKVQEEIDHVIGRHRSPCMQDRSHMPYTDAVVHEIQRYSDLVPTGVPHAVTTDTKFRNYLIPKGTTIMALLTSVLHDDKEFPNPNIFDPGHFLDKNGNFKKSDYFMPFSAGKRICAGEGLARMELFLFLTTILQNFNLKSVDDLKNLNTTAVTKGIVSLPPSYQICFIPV
Assay: CYP450 inhibition in human liver microsomes, CYP2C8
Assay type: in vitro ADME
Conditions: pH 7.4, read-out: % CYP inhibition @ 10 µM 2C8
Each entry below carries its reported inhibition at 10 min, 10 µM.
Return type: number; implicit unit %.

Example compounds with recorded inhibition at 10 min, 10 µM:
• O=C(Nc1ccc(-c2cc3cc(F)c(-c4nnn[nH]4)cc3n2C2CCC2)cc1)C(=O)Nc1ccc(N2CCC3(CCOC3)CC2)cc1 = 39.2
• CC1(n2c(-c3ccc(NC(=O)C(=O)Nc4ccc(N5CCC6(CCOC6)CC5)cc4)cc3)cc3cc(F)c(-c4nnn[nH]4)cc32)CCC1 = 42.1

Turning now to a further compound:
// query Data request, read-out inhibition at 10 min, 10 µM, for "O=C(Nc1ccc(-c2cc3cc(F)c(-c4nnn[nH]4)cc3n2C2CCC2)cc1)C(=O)Nc1ccc(N2CCC(CO)CC2)cc1"
// result 43.8

====

Target: FAP1
Test: Tyrosine phosphatase selectivity (pNPP substrate), FAP1
Type: biochemical
Conditions: selectivity ratio FAP1 over SHP2
One threshold, 70, splits the recorded IC50PTP/IC50SHP2 FAP1 values: lower ones are MET, equal or higher ones are NOT MET.

Consider the following illustrative entries.
• O=C(Nc1ccc(-c2oc3cc(F)c(-c4nnn[nH]4)cc3c2C2CCC2)cc1)C(=O)Nc1ccc(N2CCC3(CCOC3)CC2)cc1 = NOT MET
• O=C(Nc1ccc(-c2ccsc2)cc1)C(=O)Nc1ccc(-c2cc3cnc(-c4nnn[nH]4)nc3n2C2CCC2)cc1 = NOT MET
• CC1(n2c(-c3ccc(NC(=O)C(=O)Nc4ccc(N5CCC6(CCOC6)CC5)cc4)cc3)cc3cc(F)c(-c4nnn[nH]4)cc32)CCC1 = MET

// query Consider the molecule "O=C(Nc1ccc(-c2ccsc2)cc1)C(=O)Nc1ccc(-c2cc3cc(F)c(-c4nnn[nH]4)cc3n2C2CCC2)cc1" . Is its IC50PTP/IC50SHP2 FAP1 strictly less than 70?
// result NOT MET

// query Check if IC50PTP/IC50SHP2 FAP1 falls below 70 for "O=C(Nc1ccc(-c2ccsc2)cc1)C(=O)Nc1ccc(-c2oc3cc(F)c(-c4nnn[nH]4)cc3c2C2CCC2)cc1" .
// result NOT MET

// query Hello, I'm reviewing records and need to know if IC50PTP/IC50SHP2 FAP1 of "Cn1cc(-c2ccc(NC(=O)C(=O)Nc3ccc(-c4cc5cc(F)c(-c6nnc(C(F)(F)F)[nH]6)cc5n4C4CCC4)cc3)cc2)cn1" is below 70. Could you check?
// result NOT MET

// query Could you please tell me whether IC50PTP/IC50SHP2 FAP1 recorded for O=C(Nc1ccc(-c2cc3cc(F)c(-c4nnn[nH]4)cc3n2C2CCC2)cc1)C(=O)Nc1ccc(N2CC3COCC3C2)cc1 (stereo not drawn) is less than 70?
// result MET

// query Item "Cn1cc(-c2ccc(NC(=O)C(=O)Nc3ccc(-c4cc5cc(F)c(-c6noc(=O)[nH]6)cc5n4C4CCC4)cc3)cc2)cn1" : IC50PTP/IC50SHP2 FAP1 beneath 70, strictly?
// result MET

// query Find out if reported IC50PTP/IC50SHP2 FAP1 for "O=C(Nc1ccc(-c2cc3cc(F)c(-c4nnn[nH]4)cc3n2C2CCC2)cc1)C(=O)Nc1ccc(N2CCOCC2)cc1" is less than 70
// result MET

// query Please check: IC50PTP/IC50SHP2 FAP1 for "O=C(Nc1ccc(-c2ccsc2)cc1)C(=O)Nc1ccc(-c2cc3cc(F)c(-c4nnn[nH]4)nc3n2C2CCC2)cc1" , strictly under 70 or not?
// result NOT MET

====

Test: Rat PK study (IV 1 mg/kg and PO 5 mg/kg)
Assay type: in vivo, male SD rats
Conditions: male, SD, rat, plasma, 10 mg/kg; PO, dose 10 mpk; read-out: PO T1/2 (converted)
Description: According to standard methods for rat PK studies in this field, the rat PK tests for the representative compounds of this disclosure and the positive control compound (11a-1) were conducted as follows. Specifically, six male SD rats (6-8 weeks old, weighing 200 ± 20 g, purchased from Vital River Laboratories) were randomly divided into two groups of three rats each, for intravenous (IV) and oral gavage (PO) administration, respectively. […]
Property name: half-life (h)
Give just the numeric value; h need not be written.

// query Would you mind telling me what half-life value was observed for Cn1c(-c2cccc(NC(=O)C(=O)Nc3ccc(-c4ccsc4)cc3)c2)c(I)c2cc(C(=O)O)c(O)cc21 [Example 11a-1, reference compound] ?
// result 1.1

====

Molecular target: STEP (Homo sapiens)
Construct: made in house; host or cells: E. coli
Sequence (P54829 whole entry, species assumed): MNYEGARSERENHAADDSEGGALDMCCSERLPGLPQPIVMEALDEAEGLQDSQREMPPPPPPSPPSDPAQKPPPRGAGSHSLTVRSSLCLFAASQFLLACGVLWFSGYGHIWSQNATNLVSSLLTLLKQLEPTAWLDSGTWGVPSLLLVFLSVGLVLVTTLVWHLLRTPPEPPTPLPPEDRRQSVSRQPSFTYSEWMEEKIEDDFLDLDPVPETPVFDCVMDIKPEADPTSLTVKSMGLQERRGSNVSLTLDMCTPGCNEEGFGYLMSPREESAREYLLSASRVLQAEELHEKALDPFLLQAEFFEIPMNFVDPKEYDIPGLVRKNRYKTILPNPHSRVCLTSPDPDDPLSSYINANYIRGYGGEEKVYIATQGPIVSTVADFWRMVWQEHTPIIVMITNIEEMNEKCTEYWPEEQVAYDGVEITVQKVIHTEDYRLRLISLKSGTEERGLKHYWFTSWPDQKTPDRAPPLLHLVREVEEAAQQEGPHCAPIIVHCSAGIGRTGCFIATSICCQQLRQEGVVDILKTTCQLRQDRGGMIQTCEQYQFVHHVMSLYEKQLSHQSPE
Test: Tyrosine phosphatase selectivity (pNPP substrate), STEP
Assay type: biochemical
Conditions: selectivity ratio STEP over SHP2
Quick list: IC50PTP/IC50SHP2 STEP per entry.

As a guide, the following entries are already answered.
* O=C(Nc1ccc(-c2ccsc2)cc1)C(=O)Nc1ccc(-c2cc3cnc(-c4nnn[nH]4)nc3n2C2CCC2)cc1 [Example 131] | 323.1
* O=C(Nc1ccc(-c2ccsc2)cc1)C(=O)Nc1ccc(-c2cc3ccc(-c4nnn[nH]4)nc3n2C2CCC2)cc1 [Example 129] | 50.8
* O=C(Nc1ccc(-c2ccsc2)cc1)C(=O)Nc1ccc(-c2cc3cc(F)c(-c4nnn[nH]4)nc3n2C2CCC2)cc1 [Example 132] | 392.6

Next up:
// query GET /values?readout=IC50PTP/IC50SHP2 STEP&system=STEP (Homo sapiens)&item= O=C(Nc1ccc(-c2ccsc2)cc1)C(=O)Nc1ccc(-c2oc3cc(F)c(-c4nnn[nH]4)cc3c2C2CCC2)cc1 [Example 130]
// result 120

====

System: KYSE520
Test: CellTiter-Glo cell proliferation inhibition, KYSE520
Type: cell-based, human
Conditions: Homo sapiens, KYSE-520; KYSE520 cells, 120 hours, CellTiter-Glo
I'd appreciate it if you marked entries Criterion met when IC50 is lower than 0.1 µM and Criterion not met when it is not.

- O=C(Nc1ccc(-c2cc3cc(F)c(-c4nnn[nH]4)cc3n2C2CC2)cc1)C(=O)Nc1ccc(N2CCC3(CCOC3)CC2)cc1 [Example 69]: Criterion not met
- Cn1c(-c2cccc(NC(=O)C(=O)Nc3ccc(-c4ccsc4)cc3)c2)c(I)c2cc(C(=O)O)c(O)cc21 [Example 11a-1, reference compound]: Criterion not met
- CC1(n2c(-c3ccc(NC(=O)C(=O)Nc4ccc(N5CCC6(CCOCC6)CC5)cc4)cc3)cc3cc(F)c(-c4nnn[nH]4)cc32)CCC1 [Example 77]: Criterion met

// query Say whether its IC50 is strictly beneath 0.1 µM. Entry: CC1(n2c(-c3ccc(NC(=O)C(=O)Nc4ccc(N5CC6(CCC(CO)CC6)C5)cc4)cc3)cc3cc(F)c(-c4nnn[nH]4)cc32)CCC1 [Example 86]
// result Criterion not met

// query hey, is IC50 for CCC(O)C1CCN(c2ccc(NC(=O)C(=O)Nc3ccc(-c4cc5cc(F)c(-c6nnn[nH]6)cc5n4C4CCC4)cc3)cc2)CC1 (stereo not shown) [Example 31] lower than 0.1 µM or not?
// result Criterion not met

====

Target: SHP2 enzyme (catalytic domain, amino acid sequence 224-528) (Homo sapiens)
Construct: purchased GenScript
Sequence (Q06124 224-528): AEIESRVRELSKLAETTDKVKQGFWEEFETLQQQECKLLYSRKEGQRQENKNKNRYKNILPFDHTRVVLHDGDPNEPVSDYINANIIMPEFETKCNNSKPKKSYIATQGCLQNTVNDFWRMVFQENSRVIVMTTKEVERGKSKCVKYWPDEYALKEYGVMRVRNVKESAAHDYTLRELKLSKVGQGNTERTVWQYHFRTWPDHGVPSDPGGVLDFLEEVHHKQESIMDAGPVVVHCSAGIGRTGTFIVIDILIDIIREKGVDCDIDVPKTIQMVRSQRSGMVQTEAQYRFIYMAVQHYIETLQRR
Assay: SHP2 enzyme inhibition assay (DiFMUP substrate, fluorescence)
Type: biochemical
Conditions: SHP2 catalytic domain, DiFMUP substrate, 30 min pre-incubation; read-out: S HP2 I C50
This listing pairs compounds with measured IC50.
Give just the numeric value; nM need not be written.

// worked examples, IC50 included
- O=C(Nc1ccc(-c2oc3cc(F)c(-c4nnn[nH]4)cc3c2C2CCC2)cc1)C(=O)Nc1ccc(N2CCC3(CCOC3)CC2)cc1: 51
- O=C(Nc1ccc(-c2cc3cc(F)c(-c4nnn[nH]4)cc3n2C2CCC2)cc1)C(=O)Nc1ccc(N2CC3(CCOC3)C2)cc1: 69

// query What IC50 value was documented for this compound, O=C(Nc1ccc(-c2cc3cc(F)c(-c4nnn[nH]4)cc3n2C2CCC2)cc1)C(=O)Nc1ccc(N2CCC(CCO)C2)cc1 (stereo not shown) ?
// result 45

// query Return reported IC50; argument: "CC(C)(O)C1CCN(c2ccc(NC(=O)C(=O)Nc3ccc(-c4cc5cc(F)c(-c6nnn[nH]6)cc5n4Cc4ccccc4)cc3)cc2)CC1"
// result 52

// query Sample "O=C(Nc1ccc(N2CCC3(CCOC3)CC2)cc1)C(=O)NC12CC(c3cc4cc(F)c(-c5nnn[nH]5)cc4n3C3CCC3)(C1)C2" — what was its IC50?
// result 198

// query Can you look up the measured IC50 of "O=C(Nc1ccc(-c2ccsc2)cc1)C(=O)Nc1ccc(-c2sc3cc(F)c(-c4nnn[nH]4)cc3c2C2CCC2)cc1" for me?
// result 69

// query Query (compound): "O=C(Nc1ccc(-c2cc3cc(F)c(-c4nnn[nH]4)cc3n2C2CCC2)cc1)C(=O)Nc1ccc(N2CC3(CCC(CO)CC3)C2)cc1" ; field requested: IC50
// result 47

// query Look up IC50: O=C(Nc1ccc(-c2cc3cc(F)c(-c4nnn[nH]4)cc3n2C2CCC2)cc1)C(=O)Nc1ccc(N2CCC3(CCC(CO)C3)CC2)cc1 (stereo not shown)
// result 103

// query Value lookup for IC50; key = "N#CC1CCN(c2ccc(NC(=O)C(=O)Nc3ccc(-c4cc5cc(F)c(-c6nnn[nH]6)cc5n4C4CCC4)cc3)cc2)CC1"
// result 38

// query Please report the recorded IC50 for "CC1(n2c(-c3ccc(NC(=O)C(=O)Nc4ccc(N5CCC6(CCCOC6)CC5)cc4)cc3)cc3cc(F)c(-c4nnn[nH]4)cc32)CCC1" .
// result 34
